System: Mycobacterium tuberculosis variant bovis
assay_remarks: In vitro minimum inhibitory concentration dissolved in DMSO against Mycobacterium bovis BCG using BACTEC 460 radiometric system
Format: functional
metric_name: MIC99 (µg/mL)
Quick reminder: number only, in µg/mL, skip the unit.

smiles_repr	unit_annotation	MIC99
C=C1C(=O)O[C@@H](CCCCCCCC)[C@@H]1C(=O)NCCO	µg/mL	25

Request: Fill in the recorded MIC99 for this molecule, with Mycobacterium tuberculosis variant bovis as test system: `C=C1C(=O)O[C@@H](CCCCCCCC)[C@@H]1C(=O)NC/C=C/CC(=O)OC`
Response: 25

Request: Fill in the recorded MIC99 for this molecule, with Mycobacterium tuberculosis variant bovis as test system: `C=CCNC(=O)[C@@H]1C(=C)C(=O)O[C@H]1CCCCCCCCCCCC`
Response: 6.25

Request: Fill in the recorded MIC99 for this molecule, with Mycobacterium tuberculosis variant bovis as test system: `C=CCNC(=O)[C@@H]1C(=C)C(=O)O[C@H]1CCCC`
Response: 12.5

The values you see were collected from ChEMBL document CHEMBL1142794.
